Each item that follows carries a reported Binding (FOI).
target: T1, human CD3 expressed on cells (Jurkat cells; human primary T cells) (human, UniProt P07766 23-207; P04234 22-171; P09693 23-182); test: flow cytometry, 25 nM, human primary T cells
T1 construct: whole, on cells
T1 sequence (P07766 23-207, chain 1 of 3): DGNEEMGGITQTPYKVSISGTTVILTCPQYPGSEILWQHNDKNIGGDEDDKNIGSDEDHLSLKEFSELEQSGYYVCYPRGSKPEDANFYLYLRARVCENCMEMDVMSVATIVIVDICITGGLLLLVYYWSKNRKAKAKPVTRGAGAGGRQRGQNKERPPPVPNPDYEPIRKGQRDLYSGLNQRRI
T1 sequence (P04234 22-171, chain 2 of 3): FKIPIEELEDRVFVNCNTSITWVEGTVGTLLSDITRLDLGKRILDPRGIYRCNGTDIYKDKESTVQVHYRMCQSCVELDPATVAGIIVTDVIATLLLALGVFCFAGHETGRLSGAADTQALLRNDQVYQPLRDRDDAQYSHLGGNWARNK
T1 sequence (P09693 23-182, chain 3 of 3): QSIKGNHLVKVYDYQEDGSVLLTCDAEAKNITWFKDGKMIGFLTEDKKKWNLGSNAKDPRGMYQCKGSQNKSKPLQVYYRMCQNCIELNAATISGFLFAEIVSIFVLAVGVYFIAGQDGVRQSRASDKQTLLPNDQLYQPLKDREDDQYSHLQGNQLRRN
// units = FOI; emit number, no label

- mAb 194 (antibody, V domains shown, VH/VL only) VH: QEQLVESGGGVVQPGGSLRLSCAASGFIFSGYGMHWVRQAPGKGLEWVAIIWYNGRKTYYAESVKGRFTISRDNSKNTLSLQMNSLRVEDTAVYYCTAGQGYNWFDPWGQGTLVTVSS VL: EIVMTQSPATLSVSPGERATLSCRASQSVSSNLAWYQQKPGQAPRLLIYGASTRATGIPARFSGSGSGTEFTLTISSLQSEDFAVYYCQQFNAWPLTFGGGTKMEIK: 217

Let's switch to this binder now.
Reported Binding (FOI), binder mAb 225 (antibody, V domains shown, VH/VL only) VH: QEQLVESGGGVVQPGGSLRLSCAASGFKFSGYGMHWVRQAPGKGLEWVAIIWYNGRKTYYAESVKGRFTISRDNSKNTLSLQMNRLRVEDTAVYYCTAGQGYNWFDPWGQGTLVTVSS VL: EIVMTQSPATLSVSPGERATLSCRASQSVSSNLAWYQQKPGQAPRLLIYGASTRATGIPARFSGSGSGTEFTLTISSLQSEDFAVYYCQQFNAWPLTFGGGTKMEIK : ____
267
